# tgt: T1, 재조합 인간 ROR1-His (Sino Biological, 13968-H08H) (human, UniProt Q01973 30-403)
# T1 construct: bought protein
# procedure.details: BLI (Octet), ROR1-His on the sensor, 1:1 fit

# binder, binding result
rows = [
    ("A2F3 (antibody, human IgG1, lambda, V domains shown, full IgG, human IgG1 heavy and lambda light constant regions; expressed in CHO-S; also called 항-ROR1 IgG 항체 A2F3) VH: EVQLLESGGGLVQPGGSLRLSCAASGFTFSSYDMSWVRQAPGKGLEWVSWISPGGGSKYYADSVKGRFTISRDNSKNTLYLQMNSLRAEDTAVYYCARVNGRFDYWGQGTLVTVSS VL: QSVLTQPPSASGTPGQRVTISCSGSSSNIGNNNVSWYQQLPGTAPKLLIYADSHRPSGVPDRFSGSKSGTSASLAISGLRSEDEADYYCATWDYSLSGYVFGGGTKLTVLG", "binds"),
    ("A2F2 (antibody, human IgG1, lambda, V domains shown, full IgG, human IgG1 heavy and lambda light constant regions; expressed in CHO-S; also called 항-ROR1 IgG 항체 A2F2) VH: EVQLLESGGGLVQPGGSLRLSCAASGFTFSDYYMSWVRQAPGKGLEWVSSISPDGSNTYYADSVKGRFTISRDNSKNTLYLQMNSLRAEDTAVYYCAKNLRAFDYWGQGTLVTVSS VL: QSVLTQPPPASGTPGQRVTISCSGSSSNIGSNTVYWYQQLPGTAPKLLIYANSQRPSGVPDRFSGSKSGTSASLAISGLRSEDEADYYCGSWDYSLSGYVFGGGTKLTVLG", "binds"),
]
